target: T1, Human CD3 on Human CD3+ Jurkat cells (human, UniProt P07766 23-207); assay: cell binding hCD3, fold over background
T1 construct: whole, on cells; CD3 complex on cells; also called hCD3
T1 sequence (P07766 23-207): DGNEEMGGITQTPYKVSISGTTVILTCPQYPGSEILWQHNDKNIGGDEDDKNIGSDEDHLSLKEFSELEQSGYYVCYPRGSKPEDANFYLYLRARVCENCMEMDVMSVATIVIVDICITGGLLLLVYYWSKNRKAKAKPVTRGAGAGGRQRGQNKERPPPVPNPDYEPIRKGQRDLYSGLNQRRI
value_kind: Cell Binding hCD3 (FOB)
Supply the numeric figure in FOB, leaving out any unit text.

[
  {
    "binder": "ADI-45984 (antibody, V domains shown, also called Ab21) VH: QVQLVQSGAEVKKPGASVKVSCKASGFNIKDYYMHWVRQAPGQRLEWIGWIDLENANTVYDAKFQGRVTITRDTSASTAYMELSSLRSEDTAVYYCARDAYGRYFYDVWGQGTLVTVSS VL: DIVMTQSPDSLAVSLGERATINCKSSQSLLNARTRKNYLAWYQQKPGQPPKLLIYWASTRESGVPDRFSGSGSGTDFTLTISSLQAEDVAVYYCVQSYFRRTFGGGTKVEIK",
    "value_kind": "Cell Binding hCD3 (FOB)",
    "unit_symbol": "FOB",
    "recorded_result": 88
  },
  {
    "binder": "ADI-46362 (antibody, V domains shown, also called Ab46) VH: QVQLVQSGAEVKKPGASVKVSCKASGFNIKDYYMHWVRQAPGQRPEWIGWIDLENANTVYDAKFQGRVTITRDTSASTAYMELSSLRSEDTAAYYCARDAYGRYFYDVWGQGTLVTVSS VL: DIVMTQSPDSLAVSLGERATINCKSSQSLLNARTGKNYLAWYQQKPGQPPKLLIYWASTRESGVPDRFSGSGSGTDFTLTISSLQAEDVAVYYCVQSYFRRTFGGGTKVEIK",
    "value_kind": "Cell Binding hCD3 (FOB)",
    "unit_symbol": "FOB",
    "recorded_result": 7
  }
]

API: the following record is the query input.
State the recorded Cell Binding hCD3 (FOB) for this entry: ADI-45966 (antibody, V domains shown, also called Ab29) VH: QVQLVQSGAEVKKPGASVKVSCKASGFNIKDYYMHWVRQAPGQRLEWIGWIDLENANTVYDAKFQGRVAITRDTSASTAYMELSSLRSEDTAVYYCARDAYGRYFYDVWGQGTLVTVSS VL: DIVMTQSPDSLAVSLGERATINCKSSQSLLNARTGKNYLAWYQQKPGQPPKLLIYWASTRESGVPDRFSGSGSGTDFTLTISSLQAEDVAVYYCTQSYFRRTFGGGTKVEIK
14
